test: Thermal stability by differential scanning calorimetry; assay type: physicochemical; conditions: cysteine-NEM conjugates, DSC 25-100° C., 1° C. per minute
reported_property: First Scan Tm (°C)
Give bare numbers, in °C.

**Q:** Answer with the recorded First Scan Tm of S38C (protein, EGFR binding FN3 domain; EGFR-binding FN3 domain) chain 1: MLPAPKNLVVSEVTEDSARLSWDDPWAFYESFLIQYQECEKVGEAIVLTVPGSERSYDLTGLKPGTEYTVSIYGVHNVYKDTNMRGLPLSAIFTT chain 2: LPAPKNLVVSEVTEDSARLSWDDPWAFYESFLIQYQECEKVGEAIVLTVPGSERSYDLTGLKPGTEYTVSIYGVHNVYKDTNMRGLPLSAIFTT only.
**A:** 65
